Target: T1, rat APJ receptor (rat, UniProt Q9JHG3 1-377)
T1 sequence (looked up): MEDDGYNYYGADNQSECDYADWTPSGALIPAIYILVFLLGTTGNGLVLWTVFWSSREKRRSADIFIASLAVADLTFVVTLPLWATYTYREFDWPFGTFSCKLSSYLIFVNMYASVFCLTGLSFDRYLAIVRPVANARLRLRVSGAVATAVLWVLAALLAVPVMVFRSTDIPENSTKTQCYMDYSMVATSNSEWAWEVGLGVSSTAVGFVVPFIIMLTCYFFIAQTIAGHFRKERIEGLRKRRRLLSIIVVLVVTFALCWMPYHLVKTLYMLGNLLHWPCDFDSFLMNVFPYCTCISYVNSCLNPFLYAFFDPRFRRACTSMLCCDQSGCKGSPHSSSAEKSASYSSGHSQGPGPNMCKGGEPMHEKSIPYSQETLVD
Assay: cell-based or functional assay
Starred links: 1 amine or outer side, 2 acyl side, 3 side chain; linkers in the order of their positions; H or OH if unused. Non-standard residues stand in square brackets, D forms with d. *: point of attachment. Oic = O=C(O)[C@@H]1C[C@@H]2CCCC[C@@H]2N1; Phe(4-Cl) = N[C@@H](Cc1ccc(Cl)cc1)C(=O)O; γGlu = O=C(O)[C@H](CCC(=O)[*:2])N[*:1]; NMeR = CN[C@@H](CCCNC(=N)N)C(=O)O; Tridecanoyl = CCCCCCCCCCCCC(=O)*; Cha = N[C@@H](CC1CCCCC1)C(=O)O; Nle = CCCC[C@H](N)C(=O)O; AEEA = NCCOCCOCC(=O)O; Aib = CC(C)(N)C(=O)O
Assay Metric: EC50 Rat APJ Receptor (µM), GTPγS assay

Check the records and state EC50 Rat APJ Receptor (µM), GTPγS assay for Tridecanoyl-[γGlu][dQ]RP[NMeR][Cha]SHKG[Oic][Nle][Aib][Phe(4-Cl)]-OH (SMILES CCCCCCCCCCCCC(=O)N[C@@H](CCC(=O)N[C@H](CCC(N)=O)C(=O)N[C@@H](CCCNC(=N)N)C(=O)N1CCC[C@H]1C(=O)N(C)[C@@H](CCCNC(=N)N)C(=O)N[C@@H](CC1CCCCC1)C(=O)N[C@@H](CO)C(=O)N[C@@H](Cc1c[nH]cn1)C(=O)N[C@@H](CCCCN)C(=O)NCC(=O)N1[C@H](C(=O)N[C@@H](CCCC)C(=O)NC(C)(C)C(=O)N[C@@H](Cc2ccc(Cl)cc2)C(=O)O)C[C@@H]2CCCC[C@@H]21)C(=O)O) [modified apelin polypeptide SEQ ID NO: 532]
0.00299 µM

Continuing:
Check the records and state EC50 Rat APJ Receptor (µM), GTPγS assay for XXQRPRLSHKGPXPF ({TDA} [Aeea] [Aeea] Q R P [NMeArg] L S H K G P [Nle] P [4-Cl-F] {COOH}: N-terminal tridecanoyl (TDA)-Aeea-Aeea; NMeArg, Nle, 4-Cl-F non-canonical; free C-terminal acid) [modified apelin polypeptide SEQ ID NO: 507]
0.000245 µM

Check the records and state EC50 Rat APJ Receptor (µM), GTPγS assay for XXXQRPRLSHKGPXPF ({TetDDA} [AC4Abu] [Aeea] [Aeea] Q R P [NMeArg] L S H K G P [Nle] P [4-Cl-F] {COOH}: N-terminal tetradecanedioyl (TetDDA)-gammaGlu (AC4Abu)-Aeea-Aeea; NMeArg, Nle, 4-Cl-F non-canonical; free C-terminal acid) [modified apelin polypeptide SEQ ID NO: 511]
0.000968 µM

Check the records and state EC50 Rat APJ Receptor (µM), GTPγS assay for Tridecanoyl-D[AEEA][AEEA][dQ]RP[NMeR][Cha]SHKG[Oic][Nle][Aib][Phe(4-Cl)]-OH [modified apelin polypeptide SEQ ID NO: 546]
0.00123 µM
